- target: HLA-B*39:01
- run_description: IEDB peptide-MHC binding, purified MHC/competitive/fluorescence; filed as Kd, often an IC50 or EC50 that approximates it; bounds were set here for any values at or beyond the usual limits of such assays
- conditions_used: source organism: Orthomarburgvirus marburgense
measurement_name: Kd (nM)
Just the number in nM, nothing appended.

Query block: Could you share which Kd value was measured for `VPAWLPLGI` ?
Result block: 2680

====

Please provide measured pKd for the entries that follow.
- target: HLA-A*11:01
- run_description: IEDB peptide-MHC binding, purified MHC/competitive/radioactivity; filed as Kd, often an IC50 or EC50 that approximates it; bounds were set here for any values at or beyond the usual limits of such assays
- conditions_used: source organism: Vaccinia virus WR
The quantity pKd is defined as the negative base-10 logarithm of the molar concentration.

Query block: Could you share which pKd value was measured for `QFNFNGHTY` ?
Result block: 4.85

Query block: Could you share which pKd value was measured for `VSVSDFRDY` ?
Result block: 4.98

Query block: Could you share which pKd value was measured for `RALKAYFTAK` ?
Result block: 7.58

Query block: Could you share which pKd value was measured for `IITSTKTIEY` ?
Result block: 6.04

Query block: Could you share which pKd value was measured for `TVNICIFYDR` ?
Result block: 6.82

Query block: Could you share which pKd value was measured for `VVVQIDPEY` ?
Result block: 5.63

Query block: Could you share which pKd value was measured for `HINTLIQYR` ?
Result block: 6.71

Query block: Could you share which pKd value was measured for `DTSEKYSKGY` ?
Result block: 6.05

Query block: Could you share which pKd value was measured for `IILAALFMYY` ?
Result block: 6.13

Query block: Could you share which pKd value was measured for `STGESSILR` ?
Result block: 6.03

====

- target: HLA-A*26:01
- run_description: IEDB peptide-MHC binding, purified MHC/direct/fluorescence; filed as Kd, often an IC50 or EC50 that approximates it; bounds were set here for any values at or beyond the usual limits of such assays
- conditions_used: source organism: Vibrio parahaemolyticus
measurement_name: Kd

Query block: Could you share which Kd value was measured for `VQGYERIMY` ?
Result block: ≥ 20 µM

Query block: Could you share which Kd value was measured for `ILLRKGHVF` ?
Result block: ≥ 20 µM

====

- target: HLA-B*07:02
- run_description: IEDB peptide-MHC binding, purified MHC/direct/fluorescence; filed as Kd, often an IC50 or EC50 that approximates it; bounds were set here for any values at or beyond the usual limits of such assays
- conditions_used: source organism: Influenza A virus (A/Duck/Shantou/2088/01(H9N2))
measurement_name: Kd

Query block: Observed Kd on HLA-B*07:02 for `EEMATKADY` , please.
Result block: ≥ 20 µM

====

- target: HLA-A*03:01
- run_description: IEDB peptide-MHC binding, purified MHC/competitive/fluorescence; filed as Kd, often an IC50 or EC50 that approximates it; bounds were set here for any values at or beyond the usual limits of such assays
- conditions_used: source organism: Burkholderia pseudomallei K96243
measurement_name: Kd

Query block: Could you share which Kd value was measured for `DELWRGLLA` ?
Result block: ≥ 20 µM

====

- target: HLA-A*32:01
- run_description: IEDB peptide-MHC binding, purified MHC/competitive/radioactivity; filed as Kd, often an IC50 or EC50 that approximates it; bounds were set here for any values at or beyond the usual limits of such assays
- conditions_used: source organism: Dengue virus 1 Brazil/97-11/1997
measurement_name: Kd

Query block: Observed Kd on HLA-A*32:01 for `KLVMAFIAF` , please.
Result block: 1.18 µM

====

Please provide measured Kd for the entries that follow.
- target: HLA-A*24:02
- run_description: IEDB peptide-MHC binding, purified MHC/competitive/radioactivity; filed as Kd, often an IC50 or EC50 that approximates it; bounds were set here for any values at or beyond the usual limits of such assays
- conditions_used: source organism: Mammarenavirus lassaense

Query block: Observed Kd on HLA-A*24:02 for `VDINLIPLI` , please.
Result block: 2.95 µM

Query block: Observed Kd on HLA-A*24:02 for `SLNITTLRAV` , please.
Result block: ≥ 70.3 µM

====

- target: HLA-A*01:01
- run_description: IEDB peptide-MHC binding, purified MHC/direct/fluorescence; filed as Kd, often an IC50 or EC50 that approximates it; bounds were set here for any values at or beyond the usual limits of such assays
- conditions_used: source organism: Influenza A virus (A/equine/New York/1/1999(H3N8))
measurement_name: Kd

Query block: Could you share which Kd value was measured for `ELVRKTRFL` ?
Result block: ≥ 20 µM

====

- target: HLA-B*18:01
- run_description: IEDB peptide-MHC binding, purified MHC/direct/fluorescence; filed as Kd, often an IC50 or EC50 that approximates it; bounds were set here for any values at or beyond the usual limits of such assays
- conditions_used: source organism: Mammarenavirus machupoense
pKd: −log10 of the molar value.
measurement_name: pKd

Query block: Could you share which pKd value was measured for `LITEQFLCY` ?
Result block: ≤ 4.70

====

- target: HLA-B*57:01
- run_description: IEDB peptide-MHC binding, purified MHC/direct/fluorescence; filed as Kd, often an IC50 or EC50 that approximates it; bounds were set here for any values at or beyond the usual limits of such assays
- conditions_used: source organism: Cowpox virus
measurement_name: Kd

Query block: Could you share which Kd value was measured for `YHRFGLYRL` ?
Result block: ≥ 20 µM

Query block: Could you share which Kd value was measured for `YPPPRYITV` ?
Result block: ≥ 20 µM

====

- target: HLA-B*51:01
- run_description: IEDB peptide-MHC binding, purified MHC/competitive/fluorescence; filed as Kd, often an IC50 or EC50 that approximates it; bounds were set here for any values at or beyond the usual limits of such assays
- conditions_used: source organism: Influenza A virus (A/X-31(H3N2))
pKd: −log10 of the molar value.
measurement_name: pKd

Query block: Could you share which pKd value was measured for `LAKSVFNSL` ?
Result block: ≤ 4.70

====

- target: HLA-A*68:02
- run_description: IEDB peptide-MHC binding, purified MHC/competitive/radioactivity; filed as Kd, often an IC50 or EC50 that approximates it; bounds were set here for any values at or beyond the usual limits of such assays
- conditions_used: source organism: Vaccinia virus WR
measurement_name: Kd

Query block: Could you share which Kd value was measured for `VLPHLCLDYK` ?
Result block: ≥ 69.8 µM

====

- target: HLA-A*29:02
- run_description: IEDB peptide-MHC binding, purified MHC/direct/fluorescence; filed as Kd, often an IC50 or EC50 that approximates it; bounds were set here for any values at or beyond the usual limits of such assays
- conditions_used: source organism: Rickettsia bellii OSU 85-389
pKd: −log10 of the molar value.
measurement_name: pKd

Query block: Could you share which pKd value was measured for `EDFEIFYNL` ?
Result block: ≤ 4.70

====

Please provide measured pKd for the entries that follow.
- target: HLA-A*69:01
- run_description: IEDB peptide-MHC binding, purified MHC/competitive/fluorescence; filed as Kd, often an IC50 or EC50 that approximates it; bounds were set here for any values at or beyond the usual limits of such assays
- conditions_used: source organism: Orthomarburgvirus marburgense
The quantity pKd is defined as the negative base-10 logarithm of the molar concentration.

Query block: Could you share which pKd value was measured for `TVLEFILQK` ?
Result block: 6.08

Query block: Could you share which pKd value was measured for `LYKTIVNIW` ?
Result block: 5.80

====

- target: HLA-B*15:01
- run_description: IEDB peptide-MHC binding, purified MHC/competitive/fluorescence; filed as Kd, often an IC50 or EC50 that approximates it; bounds were set here for any values at or beyond the usual limits of such assays
- conditions_used: source organism: Zaire ebolavirus
measurement_name: Kd

Query block: Could you share which Kd value was measured for `VLYHRYNLV` ?
Result block: ≥ 20 µM

Query block: Could you share which Kd value was measured for `LTDRELLLL` ?
Result block: ≥ 20 µM

Query block: Could you share which Kd value was measured for `WLQKIPLQW` ?
Result block: ≥ 20 µM

====

Please provide measured pIC50 for the entries that follow.
- target: HLA-A*03:01
- run_description: IEDB peptide-MHC binding, purified MHC/competitive/fluorescence; bounds were set here for any values at or beyond the usual limits of such assays
- conditions_used: source organism: Vaccinia virus
The quantity pIC50 is defined as the negative base-10 logarithm of the molar concentration.

Query block: Could you share which pIC50 value was measured for `SIATNLEYK` ?
Result block: 5.40

Query block: Could you share which pIC50 value was measured for `LLQKYPPPR` ?
Result block: 5.39

====

- target: HLA-B*40:01
- run_description: IEDB peptide-MHC binding, purified MHC/competitive/radioactivity; filed as Kd, often an IC50 or EC50 that approximates it; bounds were set here for any values at or beyond the usual limits of such assays
- conditions_used: source organism: SARS coronavirus Tor2
Please provide measured pKd for the entries that follow.
The quantity pKd is defined as the negative base-10 logarithm of the molar concentration.

Query block: Could you share which pKd value was measured for `TEAFEKMVSL` ?
Result block: 8.45

Query block: Could you share which pKd value was measured for `GETALALLL` ?
Result block: 8.91

Query block: Could you share which pKd value was measured for `TEHSWNADL` ?
Result block: 7.47

Query block: Could you share which pKd value was measured for `VEYYPLLFIT` ?
Result block: 5.29

Query block: Could you share which pKd value was measured for `REMLAHAEET` ?
Result block: 6.04
